Source listed as the supplement of paper PMC6555819.

This section presents sequences with their documented PBM binding z-score values.
- Tested on: RARb:RXRa (NR concentration 270 nM, RXRa partner concentration 90 nM)
- test-name: PBM binding z-score (relative to random genomic background probes); higher = stronger binding; sequences stand for … in GC…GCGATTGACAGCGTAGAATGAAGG

For orientation, consider the following solved cases.
>  <item-sequence>
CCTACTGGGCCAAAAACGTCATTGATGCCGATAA

>  <PBM binding z-score>
-0.163

$$$$
>  <item-sequence>
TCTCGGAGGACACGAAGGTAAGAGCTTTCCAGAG

>  <PBM binding z-score>
1.25

$$$$
>  <item-sequence>
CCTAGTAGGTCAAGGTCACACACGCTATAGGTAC

>  <PBM binding z-score>
5.1

$$$$
>  <item-sequence>
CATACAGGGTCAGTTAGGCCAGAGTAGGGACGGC

>  <PBM binding z-score>
3.67

$$$$

Req: Dear colleague, I am looking for the recorded PBM binding z-score of the following sequence: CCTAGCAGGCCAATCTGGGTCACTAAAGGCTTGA
Resp: 1.23

Req: Same again, this time with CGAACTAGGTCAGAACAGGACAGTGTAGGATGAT
Resp: 3.07

====

- System: RARb homodimer (NR concentration 270 nM)
- test-name: PBM binding z-score (relative to random genomic background probes); higher = stronger binding; sequences stand for … in GC…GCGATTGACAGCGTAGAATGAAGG
The following sequences are listed with their measured PBM binding z-score values.
Simply state the number, no unit and no words.

Examples with their reported PBM binding z-score follow.
>  <item-sequence>
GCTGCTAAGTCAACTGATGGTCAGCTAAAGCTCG

>  <system-under-test>
RARb homodimer (NR concentration 270 nM)

>  <recorded-value>
0.11

$$$$
>  <item-sequence>
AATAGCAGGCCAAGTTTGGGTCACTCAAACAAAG

>  <system-under-test>
RARb homodimer (NR concentration 270 nM)

>  <recorded-value>
2.31

$$$$
>  <item-sequence>
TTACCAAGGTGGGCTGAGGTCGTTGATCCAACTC

>  <system-under-test>
RARb homodimer (NR concentration 270 nM)

>  <recorded-value>
1.04

$$$$

Req: What PBM binding z-score value was documented for this sequence, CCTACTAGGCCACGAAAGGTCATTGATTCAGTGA ?
Resp: 4.71

Req: Continue with TCGAGTAGGTTAGCCGGGGCATTCAGCCAACATA
Resp: 0.49

Req: And for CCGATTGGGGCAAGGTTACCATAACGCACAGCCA ?
Resp: 1

Req: Thanks! And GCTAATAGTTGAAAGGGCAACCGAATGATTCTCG ?
Resp: 2.13

Req: Next sequence: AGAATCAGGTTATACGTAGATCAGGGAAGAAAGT
Resp: 0.65

Req: GCGAGTGGGGCATCAGCAGGTTACCATAACTTAA ?
Resp: 0.915

Req: Consider next the sequence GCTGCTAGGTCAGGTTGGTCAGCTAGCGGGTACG in the same way.
Resp: 2.7

Req: Then CCGACTGGGGCATAATGTTACCATAAGCCAGCCC ?
Resp: -0.153

Req: Same thing, different sequence: TCTCGGAGGACACGAAGGTCGGAGCTTTCCAGAG
Resp: 1.42

====

- System: LXRb homodimer (NR concentration 270 nM)
- test-name: PBM binding z-score (relative to random genomic background probes); higher = stronger binding; sequences stand for … in GC…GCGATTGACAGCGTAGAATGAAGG
In this section, each of the sequences is paired with its reported PBM binding z-score.

Known results for sequences:
>  <item-sequence>
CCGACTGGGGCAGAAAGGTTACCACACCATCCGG

>  <recorded-value>
-1.17

$$$$
>  <item-sequence>
CATACAGGGTCAGCTACGCCAGAGTAGGGACGGC

>  <recorded-value>
0.562

$$$$
>  <item-sequence>
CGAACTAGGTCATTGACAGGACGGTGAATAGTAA

>  <recorded-value>
-0.0948

$$$$
>  <item-sequence>
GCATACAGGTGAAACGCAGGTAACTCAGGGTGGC

>  <recorded-value>
-0.74

$$$$
>  <item-sequence>
TCTTGTAGAGCAAGCAGGTTAAGAAAGCCTGAGT

>  <recorded-value>
-1.49

$$$$

Req: Give the reported PBM binding z-score for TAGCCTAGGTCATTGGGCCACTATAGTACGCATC (system: LXRb homodimer (NR concentration 270 nM)).
Resp: 0.679

Req: Consider next the sequence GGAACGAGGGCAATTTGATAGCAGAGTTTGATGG in the same way.
Resp: -0.315

Req: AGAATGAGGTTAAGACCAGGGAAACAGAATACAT ?
Resp: -0.233

Req: Also need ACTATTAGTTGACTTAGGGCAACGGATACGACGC , thanks.
Resp: 0.447

Req: Again, but for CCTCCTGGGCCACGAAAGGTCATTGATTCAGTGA
Resp: -0.0448

Req: Now the same for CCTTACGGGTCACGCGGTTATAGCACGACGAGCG
Resp: 0.0354

Req: For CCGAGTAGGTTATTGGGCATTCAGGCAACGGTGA then?
Resp: -0.644

====

- Test system: RARb:RXRa (NR concentration 270 nM, RXRa partner concentration 90 nM)
- test-name: PBM binding z-score (relative to random genomic background probes); higher = stronger binding; sequences stand for … in GC…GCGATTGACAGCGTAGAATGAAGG
endpoint: PBM binding z-score

See these solved cases before continuing.
>  <item-sequence>
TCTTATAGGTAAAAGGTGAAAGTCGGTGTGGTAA

>  <system-under-test>
RARb:RXRa (NR concentration 270 nM, RXRa partner concentration 90 nM)

>  <PBM binding z-score>
2.21

$$$$
>  <item-sequence>
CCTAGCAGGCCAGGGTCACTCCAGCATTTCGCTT

>  <system-under-test>
RARb:RXRa (NR concentration 270 nM, RXRa partner concentration 90 nM)

>  <PBM binding z-score>
2.47

$$$$
>  <item-sequence>
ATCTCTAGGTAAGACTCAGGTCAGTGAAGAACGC

>  <system-under-test>
RARb:RXRa (NR concentration 270 nM, RXRa partner concentration 90 nM)

>  <PBM binding z-score>
1.62

$$$$
>  <item-sequence>
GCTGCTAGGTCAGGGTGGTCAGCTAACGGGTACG

>  <system-under-test>
RARb:RXRa (NR concentration 270 nM, RXRa partner concentration 90 nM)

>  <PBM binding z-score>
3.61

$$$$
>  <item-sequence>
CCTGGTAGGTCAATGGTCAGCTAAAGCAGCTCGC

>  <system-under-test>
RARb:RXRa (NR concentration 270 nM, RXRa partner concentration 90 nM)

>  <PBM binding z-score>
3.63

$$$$
>  <item-sequence>
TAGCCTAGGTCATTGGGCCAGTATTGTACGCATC

>  <system-under-test>
RARb:RXRa (NR concentration 270 nM, RXRa partner concentration 90 nM)

>  <PBM binding z-score>
3.58

$$$$
>  <item-sequence>
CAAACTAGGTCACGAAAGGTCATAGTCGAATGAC

>  <system-under-test>
RARb:RXRa (NR concentration 270 nM, RXRa partner concentration 90 nM)

>  <PBM binding z-score>
5.58

$$$$
>  <item-sequence>
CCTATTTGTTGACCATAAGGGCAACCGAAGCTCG

>  <system-under-test>
RARb:RXRa (NR concentration 270 nM, RXRa partner concentration 90 nM)

>  <PBM binding z-score>
1.72

$$$$

Req: Any idea what its PBM binding z-score is? The sequence is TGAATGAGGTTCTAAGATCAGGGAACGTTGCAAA
Resp: -0.67

Req: Record: CGTCCAAGGTCAACGGTCAGTGAAGAGATGACGG
Resp: 5.55

Req: Now consider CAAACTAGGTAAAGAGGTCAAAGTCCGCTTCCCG .
Resp: 3.95

Req: // next record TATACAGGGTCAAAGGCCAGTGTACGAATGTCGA
Resp: 4.57

====

- System: PPARg:RXRa 90nM:30nM, anti-RXR (NR concentration 90 nM, RXRa partner concentration 30 nM)
- test-name: PBM binding z-score (relative to random genomic background probes); higher = stronger binding; sequences stand for … in GC…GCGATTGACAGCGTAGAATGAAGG
endpoint: PBM binding z-score
Returns: the value as a bare number; no unit string appended.

>  <item-sequence>
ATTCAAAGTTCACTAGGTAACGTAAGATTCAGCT

>  <endpoint>
PBM binding z-score

>  <recorded-value>
4.25

$$$$
>  <item-sequence>
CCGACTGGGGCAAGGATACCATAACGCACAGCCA

>  <endpoint>
PBM binding z-score

>  <recorded-value>
0.515

$$$$
>  <item-sequence>
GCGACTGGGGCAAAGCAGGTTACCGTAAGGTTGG

>  <endpoint>
PBM binding z-score

>  <recorded-value>
0.645

$$$$
>  <item-sequence>
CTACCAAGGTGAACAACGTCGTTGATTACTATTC

>  <endpoint>
PBM binding z-score

>  <recorded-value>
0.52

$$$$
>  <item-sequence>
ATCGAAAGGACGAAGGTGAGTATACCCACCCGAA

>  <endpoint>
PBM binding z-score

>  <recorded-value>
0.641

$$$$
>  <item-sequence>
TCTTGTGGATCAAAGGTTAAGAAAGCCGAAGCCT

>  <endpoint>
PBM binding z-score

>  <recorded-value>
8.31

$$$$
>  <item-sequence>
CCTACTGGGCCATCAGGTCATCGATATCAACGTT

>  <endpoint>
PBM binding z-score

>  <recorded-value>
3.22

$$$$
>  <item-sequence>
TCTTGTAGATGAGCAGGTTAAGAAAGCTGGCCAA

>  <endpoint>
PBM binding z-score

>  <recorded-value>
1.32

$$$$

Req: Given the sequence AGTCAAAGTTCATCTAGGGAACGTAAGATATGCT , what is its reported PBM binding z-score?
Resp: 5.6

Req: What about TCATATAGGTAAACTGGTGAAAGTCCGTAAGTTA ?
Resp: 3.07

Req: Subsequent entry: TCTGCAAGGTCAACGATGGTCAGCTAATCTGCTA
Resp: 4.09

Req: # repeat for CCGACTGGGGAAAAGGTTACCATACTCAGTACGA
Resp: 8.23

Req: Follow-up entry: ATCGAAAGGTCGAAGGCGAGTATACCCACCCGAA
Resp: 1.49

Req: And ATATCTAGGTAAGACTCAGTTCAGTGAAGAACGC ?
Resp: 0.928

Req: Now consider CCTAGCAGGCCAATCTGGGTCGCTCAAGGCTTGA .
Resp: 0.104

Req: Query CCTACTGGGCCATCAGGTCATTGAAATCAACGTT next
Resp: 2.99

Req: And then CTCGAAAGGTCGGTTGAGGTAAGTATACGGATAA , what is it?
Resp: 0.608

Req: Next: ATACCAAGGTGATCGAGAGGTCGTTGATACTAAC
Resp: 0.545

Req: Also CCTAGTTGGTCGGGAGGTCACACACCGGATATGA ?
Resp: 2.07

Req: Further, for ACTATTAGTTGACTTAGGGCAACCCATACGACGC ?
Resp: 0.203

Req: Another sequence: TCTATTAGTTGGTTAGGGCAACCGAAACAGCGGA
Resp: 2.57
